# Tested on: Molm13
# PROTOCOL TEXT: cell viability relative to DMSO control (bortezomib = 0%); higher = less growth inhibition
# TEST PARAMETERS: 10 nM; 72 h
Consider the following compounds; for each one, report its cell viability.
Your answer is read as %, so omit the unit and give the number.

So what's the measured cell viability for this one? `C[C@H]1[C@H](C)CC[C@]2(C(=O)O)CC[C@]3(C)C(=CC[C@@H]4[C@@]5(C)C[C@@H](O)[C@H](O)C(C)(C)[C@@H]5CC[C@]43C)[C@H]12`
113

Same again, this time with `COc1cc(OC)c(/C=C/S(=O)(=O)Cc2ccc(OC)c(NCC(=O)O)c2)c(OC)c1`
99.3

Same again, this time with `CNS(=O)(=O)c1ccccc1Nc1nc(Nc2ccc(N3CCN(C)CC3)cc2OC)ncc1Cl`
98.9

Same again, this time with O=C1NC(=O)C(=Cc2ccc(-c3ccc(F)cc3)o2)S1 (stereo in doubt)
106

Same again, this time with CCN(CC)CCNC(=O)c1c(C)[nH]c(/C=C2\C(=O)Nc3ccc(F)cc32)c1C [Sunitinib (malate)]
50.3

Same again, this time with `Nc1cc(C(F)(F)F)c(-c2nc(N3CCOCC3)nc(N3CCOCC3)n2)cn1`
94.3

Same again, this time with `NC(=O)Nc1cc(-c2ccc(CN3CCOCC3)cc2)sc1C(N)=O`
108

Same again, this time with `CC(C)(C)NS(=O)(=O)c1cncc(-c2cc(F)c3nc(N)nn3c2)c1`
95.9
